B1: Retinoic acid receptor beta, residues 85 to 161; numbered along this chain, P10826 (parent)
chain: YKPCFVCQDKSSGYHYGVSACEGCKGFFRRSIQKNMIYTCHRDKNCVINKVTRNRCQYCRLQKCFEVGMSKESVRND

Variants of: B1
Test: abundance fitness (aPCA) (normalised: wild type 0, dead -1); higher = more abundant; growth selection in yeast, the domain comes from the species named
Details: Homo sapiens
Class (required): determined from abundance fitness; valid ranges are bucket A = under -0.3, bucket B = from -0.3 up to -0.05, bucket C = -0.05 and over

E22P    bucket A
V18I    bucket C
Y1M    bucket C
C46S    bucket A
G26W    bucket A

Hello team, could you let me know which band the following variant falls into: V18M bucket B

Hey, which category is M36F in, do you know? bucket A

Into which category would you place R53W ? bucket C

Quick check: band for H41I bucket B

Which category does the recorded abundance fitness put M36Q in? bucket C
